B1: HDV Ribozyme (parent)
chain: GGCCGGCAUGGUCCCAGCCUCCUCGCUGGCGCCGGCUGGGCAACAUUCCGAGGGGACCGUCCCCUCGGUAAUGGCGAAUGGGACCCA

- Variants of: B1
- assay.info: self-cleavage, relative activity (ratio to wild type); higher = more cleavage; co-transcriptional
Short version: self-cleavage at least 0.2 is MET, less is NOT MET.

Q: Hi team, for C24U G68A , is the recorded self-cleavage at or above 0.2?
A: MET

Q: Hi team, for C33A A87C , is the recorded self-cleavage at or above 0.2?
A: MET

Q: Hi team, for G39C A51U , is the recorded self-cleavage at or above 0.2?
A: MET

Q: Hi team, for G28A U79C , is the recorded self-cleavage at or above 0.2?
A: NOT MET

Q: Hi team, for G28U G34A , is the recorded self-cleavage at or above 0.2?
A: NOT MET

Q: Hi team, for G35C G40A , is the recorded self-cleavage at or above 0.2?
A: MET

Q: Hi team, for A43C C63U , is the recorded self-cleavage at or above 0.2?
A: MET

Q: Hi team, for G39C G55A , is the recorded self-cleavage at or above 0.2?
A: MET

Q: Hi team, for C57U C61A , is the recorded self-cleavage at or above 0.2?
A: MET

Q: Hi team, for C4A C75U , is the recorded self-cleavage at or above 0.2?
A: NOT MET

Q: Hi team, for G38A U47G , is the recorded self-cleavage at or above 0.2?
A: NOT MET

Q: Hi team, for C7G G40A , is the recorded self-cleavage at or above 0.2?
A: NOT MET

Q: Hi team, for C13U G68A , is the recorded self-cleavage at or above 0.2?
A: MET

Q: Hi team, for C7G C33U , is the recorded self-cleavage at or above 0.2?
A: NOT MET

Q: Hi team, for C4G C62U , is the recorded self-cleavage at or above 0.2?
A: MET

Q: Hi team, for C7U G67A , is the recorded self-cleavage at or above 0.2?
A: MET

Q: Hi team, for C7G A42U , is the recorded self-cleavage at or above 0.2?
A: NOT MET

Q: Hi team, for G55A G80U , is the recorded self-cleavage at or above 0.2?
A: NOT MET

Q: Hi team, for G28U G38U , is the recorded self-cleavage at or above 0.2?
A: NOT MET

Q: Hi team, for A51G U79C , is the recorded self-cleavage at or above 0.2?
A: MET

Q: Hi team, for U20C G38U , is the recorded self-cleavage at or above 0.2?
A: NOT MET

Q: Hi team, for U47G C57G , is the recorded self-cleavage at or above 0.2?
A: MET

Q: Hi team, for C21A C84U , is the recorded self-cleavage at or above 0.2?
A: NOT MET
